# credit: ChEMBL document CHEMBL3727356

target: Pyruvate kinase PKLR (Homo sapiens, UniProt P30613, R532W); test: Activation of PKR R532W mutant (unknown origin) incubated for 60 mins in presence of ADP, PEP and NADH by Spectraax microplate reader based assay
Sequence (P30613 whole entry R532W): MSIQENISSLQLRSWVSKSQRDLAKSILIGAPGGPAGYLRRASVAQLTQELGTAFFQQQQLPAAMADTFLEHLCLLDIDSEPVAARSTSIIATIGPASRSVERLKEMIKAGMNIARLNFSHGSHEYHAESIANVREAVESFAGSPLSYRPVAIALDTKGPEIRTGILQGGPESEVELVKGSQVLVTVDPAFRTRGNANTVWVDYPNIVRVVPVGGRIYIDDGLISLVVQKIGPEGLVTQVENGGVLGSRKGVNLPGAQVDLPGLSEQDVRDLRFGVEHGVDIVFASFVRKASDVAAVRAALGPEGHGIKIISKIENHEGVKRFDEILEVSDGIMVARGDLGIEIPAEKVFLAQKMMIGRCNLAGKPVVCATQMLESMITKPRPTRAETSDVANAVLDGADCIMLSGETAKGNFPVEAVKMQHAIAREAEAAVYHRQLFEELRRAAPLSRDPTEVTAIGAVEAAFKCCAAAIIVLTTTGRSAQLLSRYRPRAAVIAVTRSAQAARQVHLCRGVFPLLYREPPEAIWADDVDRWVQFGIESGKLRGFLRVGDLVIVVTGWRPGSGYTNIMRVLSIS
quantity_kind: AC50

Examples with their reported AC50 follow.
> print(dat)
                                   compound        val
1  Nc1nc2c(S(=O)(=O)Nc3ccc(C(=O)N4CCC(O)(c5ccccc5Cl)CC4)cc3)cc(F)cc2s1   < 100 nM
2  CC1(CC2(O)CCN(C(=O)c3ccc(NS(=O)(=O)c4cccc5scnc45)cc3)CC2)CC1   < 100 nM
3  CC1(O)CCC(C2(O)CCN(C(=O)c3ccc(NS(=O)(=O)c4cccc5nccnc45)cc3)CC2)CC1 (configuration not stated)  ≤ 1000 nM
4  O=C(c1ccc(NS(=O)(=O)c2cccc3cccnc23)cc1)N1CCC(O)(Cc2ccccc2F)CC1   < 100 nM
5  O=C(c1ccc(NS(=O)(=O)c2cccc3scnc23)cc1)N1CCC(O)(c2ccccc2Cl)CC1   < 100 nM
6  O=C(c1ccc(NS(=O)(=O)c2cccc3ccccc23)cc1)N1CCC(O)(c2ccccc2Cl)CC1   < 100 nM

State its AC50: Cc1cccc(CC2(O)CCN(C(=O)c3ccc(NS(=O)(=O)c4cccc5cccnc45)cc3)CC2)n1 < 100 nM

State its AC50: O=C(c1ccc(NS(=O)(=O)c2cccc3ccoc23)cc1)N1CCC(O)(c2ccccc2Cl)CC1 < 100 nM

State its AC50: O=C(c1ccc(NS(=O)(=O)c2cccc3cccnc23)cc1)N1CCC(O)(Cc2ccccc2C(F)(F)F)CC1 < 100 nM

State its AC50: O=C(c1ccc(NS(=O)(=O)Cc2ccccn2)cc1)N1CCC(O)(c2ccccc2Cl)CC1 > 10000 nM

State its AC50: Cn1ccc(C2(O)CCN(C(=O)c3ccc(NS(=O)(=O)c4cccc5scnc45)cc3)CC2)n1 > 10000 nM

State its AC50: CS(=O)(=O)c1ccccc1C1(O)CCN(C(=O)c2ccc(NS(=O)(=O)c3cccc4cccnc34)cc2)CC1 < 100 nM

State its AC50: CC(C)CC1(O)CCN(C(=O)c2ccc(NS(=O)(=O)c3cc(F)cc4scnc34)cc2)CC1 < 100 nM

State its AC50: COc1ccccc1CC1(O)CCN(C(=O)c2ccc(NS(=O)(=O)c3cccc4cccnc34)cc2)CC1 < 100 nM

State its AC50: O=C(c1ccc(NS(=O)(=O)c2cccc3cccnc23)cc1)N1CCC(O)(c2cccc(C(F)(F)F)n2)CC1 < 100 nM

State its AC50: CC(C)CC1(O)CCN(C(=O)c2ccc(NS(=O)(=O)c3cccc4ncc(O)nc34)cc2)CC1 > 10000 nM

State its AC50: O=C(c1ccc(NS(=O)(=O)c2cccc3cc(F)cnc23)cc1)N1CCC(O)(Cc2ccccc2)CC1 < 100 nM

* * *

molecular target: Pyruvate kinase PKLR (Homo sapiens, UniProt P30613, R532W); assay: Activation of PKR R532W mutant (unknown origin) incubated for 60 mins in presence of ADP, PEP and NADH by Spectraax microplate reader based assay
quantity_kind: AC50

> print(dat)
                                   molecule       val
1  O=C(c1ccc(NS(=O)(=O)c2cccc3cccnc23)cc1)N1CCC(O)(Cc2ccccc2)CC1  < 0.1 µM
2  COc1ncccc1C1(O)CCN(C(=O)c2ccc(NS(=O)(=O)c3cccc4cccnc34)cc2)CC1  < 0.1 µM
3  O=C(c1ccc(NS(=O)(=O)c2cccc3cccnc23)cc1)N1CCC(O)(c2ncccc2C(F)(F)F)CC1  < 0.1 µM
4  O=C(c1ccc(NS(=O)(=O)c2cccc3cccnc23)cc1)N1CCC(O)(CC2CCC2)CC1  < 0.1 µM
5  CC(C)CC1(O)CCN(C(=O)c2ccc(NS(=O)(=O)c3cc(F)cc4sc(N)nc34)cc2)CC1  < 0.1 µM
6  O=C(c1ccc(NS(=O)(=O)c2cccc3cccnc23)cc1)N1CCC(O)(c2ncccc2Cl)CC1  < 0.1 µM

State its AC50: CC(C)CC1(O)CCN(C(=O)c2ccc(NS(=O)(=O)c3cccc4snnc34)cc2)CC1 > 10 µM

State its AC50: Cc1cc(C(=O)N2CCC(O)(c3cccc(Cl)c3)CC2)ccc1NS(=O)(=O)c1cccc2cccnc12 < 0.1 µM

State its AC50: O=C(c1ccc(NS(=O)(=O)c2cccc3cccnc23)cc1)N1CCC(O)(Cc2ccccn2)CC1 < 0.1 µM

* * *

target: Pyruvate kinase PKLR (Homo sapiens, UniProt P30613, R532W); experiment: Activation of PKR R532W mutant (unknown origin) incubated for 60 mins in presence of ADP, PEP and NADH by Spectraax microplate reader based assay
# AC50 values compiled below

Examples with their reported AC50 follow.
> print(dat)
                                   molecule        val
1  CC(C)CC1(O)CCN(C(=O)c2ccc(NS(=O)(=O)c3cccc4sc(N)nc34)cc2)CC1   < 100 nM
2  O=C(c1ccc(NS(=O)(=O)c2cccc3scnc23)cc1)N1CCC(O)(CCCC(F)F)CC1   < 100 nM
3  O=C(c1ccc(NS(=O)(=O)c2cccc3nccnc23)cc1)N1CCC(O)(c2ncc(Cl)s2)CC1  ≤ 1000 nM
4  CC(CC1(O)CCN(C(=O)c2ccc(NS(=O)(=O)c3cccc4sc(N)nc34)cc2)CC1)C(F)(F)F (stereo not drawn)   < 100 nM
5  O=C(c1ccc(NS(=O)(=O)c2cccc3scnc23)cc1)N1CCC(O)(Cc2cn[nH]c2)CC1   < 100 nM

State its AC50: O=C(c1ccc(NS(=O)(=O)c2cccc3nccnc23)cc1)N1CCC(O)(c2ccccc2Cl)CC1 < 100 nM

State its AC50: Cc1ccccc1C1(O)CCN(C(=O)c2ccc(NS(=O)(=O)c3cccc4cccnc34)cc2)CC1 < 100 nM

State its AC50: O=C(c1ccc(NS(=O)(=O)c2cccc3cccnc23)c2ccccc12)N1CCC(O)(c2ccccc2Cl)CC1 < 100 nM

State its AC50: O=C(c1ccc(NS(=O)(=O)c2cccc3scnc23)cc1)N1CCC(O)(c2sncc2Cl)CC1 < 100 nM

State its AC50: CC(C)CC1(O)CCN(C(=O)c2ccc(NS(=O)(=O)c3cccc4nccnc34)cc2)CC1 < 100 nM

State its AC50: CC(F)(F)CCC1(O)CCN(C(=O)c2ccc(NS(=O)(=O)c3cc(F)cc4sc(N)nc34)cc2)CC1 < 100 nM

State its AC50: O=C(c1ccc(NS(=O)(=O)c2cccc3cccnc23)cc1)N1CCC(O)(CC2CC2)CC1 < 100 nM

State its AC50: Cc1cc(CC2(O)CCN(C(=O)c3ccc(NS(=O)(=O)c4cccc5nccnc45)cc3)CC2)sn1 < 100 nM

State its AC50: Cc1cc(C(=O)N2CCC(O)(c3ccccc3Cl)CC2)ccc1NS(=O)(=O)c1cccc2cccnc12 < 100 nM

State its AC50: COc1cccc(CC2(O)CCN(C(=O)c3ccc(NS(=O)(=O)c4cccc5cccnc45)cc3)CC2)c1 < 100 nM

State its AC50: Cc1nc(F)ccc1C1(O)CCN(C(=O)c2ccc(NS(=O)(=O)c3cccc4cccnc34)cc2)CC1 < 100 nM

State its AC50: O=C(c1ccc(NS(=O)(=O)c2cccc3scnc23)cc1)N1CCC(O)(CCCC(F)(F)F)CC1 < 100 nM

State its AC50: O=C(c1ccc(NS(=O)(=O)c2cccc3nccnc23)cc1)N1CCC(O)(Cc2cn[nH]c2)CC1 < 100 nM

* * *

target: Pyruvate kinase PKLR (Homo sapiens, UniProt P30613, R510Q); test: Activation of PKR R510Q mutant (unknown origin) incubated for 60 mins in presence of ADP, PEP and NADH by Spectraax microplate reader based assay
Sequence (P30613 whole entry R510Q): as the sequence (P30613 whole entry R532W) above, with R510Q, W532R counted along it
# AC50 values compiled below

Examples with their reported AC50 follow.
> print(dat)
                                   molecule  quantity.kind         val
1  CNc1nc2c(S(=O)(=O)Nc3ccc(C(=O)N4CCC(O)(CC(C)C)CC4)cc3)cccc2s1           AC50    < 100 nM
2  Nc1nc2c(S(=O)(=O)Nc3ccc(C(=O)N4CCC(O)(c5ccccc5Cl)CC4)cc3)cc(F)cc2s1           AC50    < 100 nM
3  CC(C)CC1(O)CCN(C(=O)c2ccc(NS(=O)(=O)c3cccc4[nH]cnc34)cc2)CC1           AC50  > 10000 nM
4  CC(C)CC1(O)CCN(C(=O)c2ccc(NS(=O)(=O)c3cc(F)cc4sc(N)nc34)cc2)CC1           AC50    < 100 nM
5  O=C(c1ccc(NS(=O)(=O)c2cccc3c(O)ncnc23)cc1)N1CCC(O)(/C=C/CC(F)(F)F)CC1           AC50    < 100 nM

State its AC50: O=C(c1ccc(NS(=O)(=O)c2cccc3cccnc23)cc1OC(F)F)N1CCC(O)(c2ccccc2Cl)CC1 < 100 nM

State its AC50: O=C(c1ccc(NS(=O)(=O)c2cccc3cccnc23)nc1)N1CCC(O)(c2ccccc2)CC1 > 10000 nM

State its AC50: O=C(c1ccc(NS(=O)(=O)c2cccc3cccnc23)cc1)N1CCC(O)(Cc2ccccc2C(F)(F)F)CC1 < 100 nM
